target: human p38 kinase alpha (Homo sapiens); construct: GST (N, cleaved yes); made in house; host or cells: E. coli DH10B; experiment: p38 kinase in vitro assay, phosphorylation of biotinylated PHAS-I with 32P-ATP; format: biochemical; settings: in vitro P38-alpha kinase inhibition; read-out: P38 alpha kinase IC50
Sequence (Q16539 whole entry): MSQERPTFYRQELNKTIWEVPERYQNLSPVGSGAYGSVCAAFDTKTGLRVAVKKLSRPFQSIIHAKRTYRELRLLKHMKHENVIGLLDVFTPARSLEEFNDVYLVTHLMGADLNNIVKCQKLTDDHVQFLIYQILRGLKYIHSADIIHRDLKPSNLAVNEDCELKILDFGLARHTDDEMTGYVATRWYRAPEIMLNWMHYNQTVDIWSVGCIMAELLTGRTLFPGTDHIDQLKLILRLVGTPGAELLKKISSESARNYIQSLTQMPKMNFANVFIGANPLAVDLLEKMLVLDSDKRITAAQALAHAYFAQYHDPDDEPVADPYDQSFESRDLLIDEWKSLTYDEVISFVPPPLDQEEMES
property label: IC50 (nM)

Look over these answered cases.
>>> value_reported("CNC(=O)CCC(NC(=O)c1cccc(Br)c1)c1[nH]nc(-c2ccc(F)cc2)c1-c1ccncc1 (stereo not drawn) [Example B-0867]")
620
>>> value_reported("CNC(=O)CCC(NC(=O)c1ccccc1I)c1[nH]nc(-c2ccc(F)cc2)c1-c1ccncc1 (stereo not drawn) [Example B-0861]")
1320
>>> value_reported("O=C(NCCc1[nH]nc(-c2ccc(F)cc2)c1-c1ccncc1)c1cccc(Cl)c1Cl [Example B-1132]")
720
>>> value_reported("CNC(=O)CCC(NC(=O)c1ccno1)c1[nH]nc(-c2ccc(F)cc2)c1-c1ccncc1 (stereo not drawn) [Example B-0869]")
4190

a = CC(NC(=O)c1c(F)cc(F)cc1F)c1[nH]nc(-c2ccc(F)cc2)c1-c1ccncc1 (stereo not drawn) [Example B-0684]
b = COc1ccc(CC(=O)NC(Cc2ccccc2)c2[nH]nc(-c3ccc(F)cc3)c2-c2ccncc2)cc1OC (stereo not drawn) [Example B-0815]
c = O=C(NCCc1ccccc1)NC(Cc1ccccc1)c1[nH]nc(-c2ccc(F)cc2)c1-c1ccncc1 (stereo not drawn) [Example B-0783]
d = COc1ccc(CC(=O)NC(Cc2ccccc2)c2[nH]nc(-c3ccc(F)cc3)c2-c2ccncc2)cc1 (stereo not drawn) [Example B-0816]
Query: Please list these in order of increasing IC50. Thank you! Write out the labels following the order that was asked for.
Response: a, b, d, c
(a: 540 nM, b: 2110 nM, d: 3460 nM, c: 8000 nM)

P = O=S(=O)(NC(Cc1ccccc1)c1[nH]nc(-c2ccc(F)cc2)c1-c1ccncc1)C(F)(F)F (stereo not drawn) [Example B-0758]
Q = O=S(=O)(NC(Cc1ccccc1)c1[nH]nc(-c2ccc(F)cc2)c1-c1ccncc1)c1ccccc1F (stereo not drawn) [Example B-0714]
R = CC(NS(=O)(=O)c1ccccc1Br)c1[nH]nc(-c2ccc(F)cc2)c1-c1ccncc1 (stereo not drawn) [Example B-0631]
Query: Hello, I need these entries ordered by IC50, highest reading first. Thanks! Please respond by ranking the labels in the order requested.
Response: Q, P, R
